Every entry's value here was drawn from ChEMBL document CHEMBL3045677.

# Test system: Proteus mirabilis
# ASSAY PROCEDURE: Antibacterial activity against Proteus mirabilis at […] degC measured after 24 hr by microdilution method
# Assay type: functional
Decision: MIC beneath 40 µM gives criterion met; MIC meeting or exceeding 40 µM gives criterion not met.

Confirm or reject: MIC of COc1cc(Cc2nnc(Nc3ccccc3)s2)c(S(=O)(=O)N2CCCC2)cc1OC lies strictly below 40 µM
criterion met

What do you have for COc1cc(Cc2nnc(Nc3ccccc3)s2)c(S(=O)(=O)N(C)C)cc1OC ?
criterion not met

What do you have for COc1cc(Cc2nnc(Nc3ccc(C(F)(F)F)cc3)s2)c(S(=O)(=O)N2CCCC2)cc1OC ?
criterion met

What do you have for COc1cc(Cc2nnc(Nc3ccc(Cl)cc3)s2)c(S(=O)(=O)N2CCCC2)cc1OC ?
criterion met

What do you have for COc1cc(Cc2nnc(Nc3ccc([N+](=O)[O-])cc3)s2)c(S(=O)(=O)N2CCCCC2)cc1OC ?
criterion met

What do you have for COc1cc(Cc2nnc(Nc3ccc(C(F)(F)F)cc3)s2)c(S(=O)(=O)N2CCCCC2)cc1OC ?
criterion met

What do you have for COc1cc(Cc2nnc(Nc3ccc(Cl)cc3)s2)c(S(=O)(=O)N2CCN(C)CC2)cc1OC ?
criterion met

What do you have for COc1cc(Cc2nnc(Nc3ccc(C(F)(F)F)cc3)s2)c(S(=O)(=O)N2CCN(C)CC2)cc1OC ?
criterion met

What do you have for COc1cc(Cc2nnc(Nc3ccc(Cl)cc3)s2)c(S(=O)(=O)N2CCCCC2)cc1OC ?
criterion met

What do you have for COc1cc(Cc2nnc(Nc3ccc([N+](=O)[O-])cc3)s2)c(S(=O)(=O)N(C)C)cc1OC ?
criterion not met

What do you have for CN[C@@H]1[C@H](O[C@H]2[C@H](O[C@H]3[C@H](O)[C@@H](O)[C@H](N=C(N)N)[C@@H](O)[C@@H]3N=C(N)N)O[C@@H](C)[C@]2(O)C=O)O[C@@H](CO)[C@H](O)[C@H]1O [STREPTOMYCIN] ?
criterion not met

What do you have for CC1(C)S[C@@H]2[C@H](NC(=O)[C@H](N)c3ccccc3)C(=O)N2[C@H]1C(=O)O [AMPICILLIN] ?
criterion not met

What do you have for COc1cc(Cc2nnc(Nc3ccc(Cl)cc3)s2)c(S(=O)(=O)N(C)C)cc1OC ?
criterion met

What do you have for COc1cc(Cc2nnc(Nc3ccc(C(F)(F)F)cc3)s2)c(S(=O)(=O)N(C)C)cc1OC ?
criterion met

----------
Would you mind telling me the reported MIC of each entry?
# System: Trichoderma viride
# ASSAY PROCEDURE: Antifungal activity against Hypocrea rufa IAM 5061 at 28 degC measured after 72 hr by microdilution method
# Format: functional
# CONDITION DESCRIPTION: IAM 5061, 72 h
Report only the number, with the unit µM understood.

I would be grateful if you could share the reported MIC for COc1cc(Cc2nnc(Nc3ccc(Cl)cc3)s2)c(S(=O)(=O)N2CCCC2)cc1OC .
10.1

What do you have for COc1cc(Cc2nnc(Nc3ccc([N+](=O)[O-])cc3)s2)c(S(=O)(=O)N(C)C)cc1OC ?
10.5

What do you have for COc1cc(Cc2nnc(Nc3ccc(Cl)cc3)s2)c(S(=O)(=O)N2CCCCC2)cc1OC ?
9.8

What do you have for COc1cc(Cc2nnc(Nc3ccc(C(F)(F)F)cc3)s2)c(S(=O)(=O)N2CCN(C)CC2)cc1OC ?
8.9

What do you have for CC(=O)N1CCN(c2ccc(OCC3COC(Cn4ccnc4)(c4ccc(Cl)cc4Cl)O3)cc2)CC1 (stereo not given) ?
4750

What do you have for COc1cc(Cc2nnc(Nc3ccc(Cl)cc3)s2)c(S(=O)(=O)N2CCN(C)CC2)cc1OC ?
9.6

What do you have for COc1cc(Cc2nnc(Nc3ccc(C(F)(F)F)cc3)s2)c(S(=O)(=O)N2CCCC2)cc1OC ?
9.5

What do you have for COc1cc(Cc2nnc(Nc3ccc([N+](=O)[O-])cc3)s2)c(S(=O)(=O)N2CCCCC2)cc1OC ?
9.7

What do you have for COc1cc(Cc2nnc(Nc3ccc([N+](=O)[O-])cc3)s2)c(S(=O)(=O)N2CCCC2)cc1OC ?
9.9

What do you have for c1ccc(-c2ccc(C(c3ccccc3)n3ccnc3)cc2)cc1 (stereo not given) ?
640

What do you have for COc1cc(Cc2nnc(Nc3ccc(C(F)(F)F)cc3)s2)c(S(=O)(=O)N2CCCCC2)cc1OC ?
9.2

What do you have for COc1cc(Cc2nnc(Nc3ccccc3)s2)c(S(=O)(=O)N(C)C)cc1OC ?
11.5

What do you have for COc1cc(Cc2nnc(Nc3ccc(Cl)cc3)s2)c(S(=O)(=O)N(C)C)cc1OC ?
10.7

What do you have for COc1cc(Cc2nnc(Nc3ccc(C(F)(F)F)cc3)s2)c(S(=O)(=O)N(C)C)cc1OC ?
9.9

What do you have for COc1cc(Cc2nnc(Nc3ccccc3)s2)c(S(=O)(=O)N2CCCC2)cc1OC ?
10.9
